- EXPERIMENTAL SYSTEM: MaArr (Mycobacteroides abscessus, UniProt B1MH05)
READOUT KIND: IC50

- NS(=O)(=O)c1ccc(-c2nc3ccccc3c(=O)[nH]2)cc1: 10 to 100 µM

* * *

List of IC50 values.
- System: SmArr
- Construct: gene arr; class 1 integron gene; codon-optimized; His6-MBP tag cut off with TEV; E. coli BL21(DE3)
- METHOD NOTES: fluorescent NAD+ conversion assay
- Type: biochemical, Stenotrophomonas maltophilia
- CONDITION LABEL: 1 µM NAD+, 2 µM rifampicin, 50 mM PIPES pH 7.5, 0.01% Triton X-100, room temperature
READOUT KIND: IC50 (nM)

- Oc1ccc(O)c2c1sc1nncn12 [compound 13, 13]: 1200
- O=c1c(O)c(-c2cc(O)c(O)c(O)c2)oc2cc(O)cc(O)c12 [compound 7]: 1700
